Test system: K562 (human chronic myelogenous leukemia) cells
ASSAY NOTES: Cell Titer Glo 2.0 cell viability assay
Assay type: cell-based
SETUP CONDITIONS: Homo sapiens, K562, 72 h, K562 cells, 72 hours, Cell Titer Glo 2.0; read-out: K562 GI50
METRIC: GI50

Some solved cases for reference:
- COMPOUND: "Cn1cc2cc(-c3cc4ncn(C5CCNCC5)c(=O)c4cn3)c(O)c(F)c2n1"
  GI50: "100 to 1000 nM"
- COMPOUND: "Cc1cn2nc(-c3cc(F)c4c(=O)n([C@@H]5CCNC6(CC6)C5)ncc4c3)cc(C)c2n1"
  GI50: "100 to 1000 nM"
- COMPOUND: "Cc1nc2c(C)cc(-c3ccc4c(=O)n(C5CCNC6(CC6)C5)ncc4c3)cc2o1 (stereo not shown)"
  GI50: "1000 to 10000 nM"
- COMPOUND: "Cn1cc2cc(-c3ccc4c(=O)n(C5CCNCC5)cnc4c3)cc(F)c2n1"
  GI50: "100 to 1000 nM"

Item: Cc1nc2c(F)cc(-c3cc(F)c4c(=O)n(C5CCNC6(CC6)C5)ccc4c3)cc2o1 (stereo not shown) | GI50: < 100 nM

Item: Cc1cn2cc(-c3ccc4c(=O)n(C5CCNCC5)cnc4c3)cc(C)c2n1 | GI50: 100 to 1000 nM

Item: Cc1c(O)c(-c2ncc3c(=O)n(C4C[C@H]5C[C@@H]4CN5)ccc3n2)cc2cn(C)nc12 (stereo in doubt) | GI50: 100 to 1000 nM
